The values you see were collected from patent US4002623A.

Experiment: adjuvant arthritis screen (Walz et al.), swelling of the non-injected left hind foot on Day 16
Type: in vivo, male inbred Lewis rats
Conditions: Rattus norvegicus, 384 h, 20 mg./kg. po, daily day -1 through day 15, read-out: Activity Percent Inhibition
Please mark 1.0 if the recorded inhibition in vivo at 20 mg/kg is equal to or greater than 30%, and 0.0 if it falls below.

Recorded results for 5 molecules are shown here.
>  <molecule>
Cc1ccc2c(c1)nc(NC(=O)c1ccc(Cl)cc1)n2CCCN1CCN(C)CC1 [4-Chlorophenyl; CH3; H; drawing 24]

>  <assigned-class>
0.0

$$$$
>  <molecule>
CCCCCCCCCC(=O)Nc1nc2ccccc2n1CCCN1CCN(C)CC1 [CH3 (CH2)8; H; H; drawing 24]

>  <assigned-class>
1.0

$$$$
>  <molecule>
Cc1cc2nc(NC(=O)c3cccc(C(F)(F)F)c3)n(CCCN3CCN(C)CC3)c2cc1C

>  <assigned-class>
0.0

$$$$
>  <molecule>
CN1CCN(CCCn2c(NC(=O)c3ccc(Cl)c(Cl)c3)nc3cc(S(=O)(=O)N(C)C)ccc32)CC1

>  <assigned-class>
1.0

$$$$
>  <molecule>
COc1ccc(C(=O)Nc2nc3ccc(C)cc3n2CCCN2CCN(C)CC2)cc1 [4-Methoxyphenyl; H; CH3; drawing 24]

>  <assigned-class>
0.0

$$$$

API: above_or_equal(metric=inhibition in vivo at 20 mg/kg, cutoff=30%) for item `CN1CCN(CCCn2c(NC(=O)c3cc(C(F)(F)F)cc(C(F)(F)F)c3)nc3ccccc32)CC1`
1.0

Try this molecule next: COc1ccc(C(=O)Nc2nc3cccnc3n2CCCN2CCN(C)CC2)cc1 [4-Methoxyphenyl; H; H; drawing 25]
0.0

Try this molecule next: Cc1cc2nc(NC(=O)c3ccc(Cl)c(Cl)c3)n(CCCN3CCN(C)CC3)c2cc1C [3,4-Dichlorophenyl; CH3; CH3; drawing 24]
0.0

Try this molecule next: Cc1ccc2c(c1)nc(NC(=O)c1ccc(C(F)(F)F)cc1)n2CCCN1CCN(C)CC1 [4-Trifluoromethylphenyl; CH3; H; drawing 24]
1.0

Try this molecule next: Cc1ccc2nc(NC(=O)c3ccc(C(F)(F)F)cc3)n(CCCN3CCN(C)CC3)c2c1 [4-Trifluoromethylphenyl; H; CH3; drawing 24]
1.0
